# System: Endothelin-converting enzyme 1 (Sus scrofa)
# experiment: Inhibition of endothelin-converting enzyme 1 partially purified from porcine primary aortic endothelial cells at 20 uM
# condition.description: Endothelial cell
assay.readout: inhibition (%)
Give the quantity in %, number only.

Challenge: GET /values?readout=inhibition&item= O=C(Cc1ccccc1)N[C@@H](CS)Cc1ccc(O)cc1
Response given: 56

Challenge: GET /values?readout=inhibition&item= O=C(CCc1ccccc1Cl)N[C@@H](CS)Cc1ccccc1
Response given: 57

Challenge: GET /values?readout=inhibition&item= O=C(Cc1ccc(-c2ccccc2)cc1)N[C@@H](CS)Cc1ccccc1
Response given: 74

Challenge: GET /values?readout=inhibition&item= O=C(N[C@@H](CS)Cc1ccccc1)/C(=C/c1ccccc1)c1ccccc1
Response given: 23

Challenge: GET /values?readout=inhibition&item= O=C(CCc1ccccc1O)N[C@@H](CS)Cc1ccccc1
Response given: 58

Challenge: GET /values?readout=inhibition&item= O=C(N[C@@H](CS)Cc1ccccc1)c1nccc2ccccc12
Response given: 36

Challenge: GET /values?readout=inhibition&item= O=C(N[C@@H](CS)Cc1ccc(-c2ccccc2)cc1)c1cccnc1
Response given: 39

Challenge: GET /values?readout=inhibition&item= O=C(Cc1ccccc1)N[C@@H](CS)Cc1ccccc1
Response given: 58

Challenge: GET /values?readout=inhibition&item= O=C(Cc1ccc(OCc2ccccc2)cc1)N[C@@H](CS)Cc1ccc(-c2cccc3ccccc23)cc1
Response given: 0

Challenge: GET /values?readout=inhibition&item= O=C(N[C@@H](CS)Cc1ccccc1)[C@@H]1CCCN1
Response given: 0

Challenge: GET /values?readout=inhibition&item= O=C(N[C@@H](CS)Cc1ccccc1)c1c[nH]c2ccccc12
Response given: 67
